B1: Peroxisome proliferator-activated receptor delta, residues 71 to 145; numbered along this chain, Q03181 (parent)
chain: NMECRVCGDKASGFHYGVHACEGCKGFFRRTIRMKLEYEKCERSCKIQKKNRNKCQYCRFQKCLALGMSHNAIRF

# Variants of: B1
# ASSAY_NOTES: abundance fitness (aPCA) (normalised: wild type 0, dead -1); higher = more abundant; growth selection in yeast, the domain comes from the species named
# RUN_CONDITIONS: Homo sapiens

# RECORD_SEQUENCE, abundance fitness
rows = [
    ("NMECRVCGDKASGFMYGVHACEGCKGFFRRTIRMKLEYEKCERSCKIQKKNRNKCQYCRFQKCLALGMSHNAIRF [H15M]", -0.125),
    ("NMECRVCGDKASGFHYGVHACEGCKGFFRRTIRMKLEYEKCERSCKIQKKNRNKCQYCRFQKCLALGYSHNAIRF [M68Y]", -0.718),
    ("NLECRVCGDKASGFHYGVHACEGCKGFFRRTIRMKLEYEKCERSCKIQKKNRNKCQYCRFQKCLALGMSHNAIRF [M2L]", -0.315),
    ("NMECRVCGDKASGFHYGVHACEGCKGFFRRTIRMKLEEEKCERSCKIQKKNRNKCQYCRFQKCLALGMSHNAIRF [Y38E]", -0.803),
    ("NMECRVCGDKASGFHYGVHACEGCKGFFRRTIRMKLEYEKCERSCKIQKKNRNKCQYCRFQKCLAVGMSHNAIRF [L66V]", 0.113),
    ("NMECRVCGDKASGFHYGVHACEGCKGFFRRTIRMKLEYEKCMRSCKIQKKNRNKCQYCRFQKCLALGMSHNAIRF [E42M]", -0.051),
    ("NMECRVCGDKASGFHYGVHDCEGCKGFFRRTIRMKLEYEKCERSCKIQKKNRNKCQYCRFQKCLALGMSHNAIRF [A20D]", -0.99),
    ("NMECRVCGDKASGFHYGVHACEGCKGFFRRTIRMKLEYEKCERSCKIQKKNKNKCQYCRFQKCLALGMSHNAIRF [R52K]", 0.207),
    ("NMECRVCGDKASGFNYGVHACEGCKGFFRRTIRMKLEYEKCERSCKIQKKNRNKCQYCRFQKCLALGMSHNAIRF [H15N]", -0.341),
    ("NMECRVCGDKASGFHYGVHACEGCKGFFRRTIRMKLEYEKCERSCKIQKKNRNKCQYCRFQKCLALGMSHNDIRF [A72D]", 0.132),
    ("NMECRVCGDKASGFHYGVHACEGCKGFFRRTIYMKLEYEKCERSCKIQKKNRNKCQYCRFQKCLALGMSHNAIRF [R33Y]", -0.019),
    ("NMECRVCGDKASGFHYGVHACEGCDGFFRRTIRMKLEYEKCERSCKIQKKNRNKCQYCRFQKCLALGMSHNAIRF [K25D]", -0.048),
    ("NMECRVCGDKASGFHYGVHACEGCKGFFRRTIGMKLEYEKCERSCKIQKKNRNKCQYCRFQKCLALGMSHNAIRF [R33G]", -0.038),
    ("NMECRVHGDKASGFHYGVHACEGCKGFFRRTIRMKLEYEKCERSCKIQKKNRNKCQYCRFQKCLALGMSHNAIRF [C7H]", -0.21),
    ("NMECRVCGDKAIGFHYGVHACEGCKGFFRRTIRMKLEYEKCERSCKIQKKNRNKCQYCRFQKCLALGMSHNAIRF [S12I]", -0.121),
    ("NMECRVCGDKASGFHYGVHACEGCKGFFRRTIRMKLEYEKCERSCKIQKKNRNKCQYCGFQKCLALGMSHNAIRF [R59G]", -0.867),
    ("NMECRVCGDKASGFHYGVHACEGCKGFFRRTIRMKGEYEKCERSCKIQKKNRNKCQYCRFQKCLALGMSHNAIRF [L36G]", -0.224),
    ("NMECRVCGDKASGFHYGVHACEGCKGFFRRTIRMKLEYEKCERSCKIQKKNRNKCQYCRFQKCLGLGMSHNAIRF [A65G]", -0.185),
    ("NMECRVCGDKASGFPYGVHACEGCKGFFRRTIRMKLEYEKCERSCKIQKKNRNKCQYCRFQKCLALGMSHNAIRF [H15P]", -0.242),
    ("NMECRVCGDKASGFHYGVHACEGCKGFFRRTIRMKLEYEKCERSCKIQKKNRHKCQYCRFQKCLALGMSHNAIRF [N53H]", -0.152),
    ("NMECRVCGDKASGFHYGVHACEGCKGFFRRTIRMKLEYEKCERSCKIQKKNRNKCQYCRFQKCLALGMSSNAIRF [H70S]", 0.015),
    ("NMECRVCGDKASGFHYGVHACEGCKGFFRRTIRMKLEYEKCERSCKIQKKNRNKCQYCRFQKCLALQMSHNAIRF [G67Q]", -0.604),
    ("RMECRVCGDKASGFHYGVHACEGCKGFFRRTIRMKLEYEKCERSCKIQKKNRNKCQYCRFQKCLALGMSHNAIRF [N1R]", -0.296),
    ("NMECRVCGDKASGFHYGVHACEGCKGFFRRTIRMKLEYEKCERSCKIQKKNRNKCQYCRFQKCLAKGMSHNAIRF [L66K]", -0.018),
    ("NMECHVCGDKASGFHYGVHACEGCKGFFRRTIRMKLEYEKCERSCKIQKKNRNKCQYCRFQKCLALGMSHNAIRF [R5H]", -0.257),
    ("NMECRVCGDKASGFHYGVHACEGCKGFFRRTIRMKLEYEKCERSCKHQKKNRNKCQYCRFQKCLALGMSHNAIRF [I47H]", -0.589),
    ("NMECRVCGDKASGFHYGVHACEDCKGFFRRTIRMKLEYEKCERSCKIQKKNRNKCQYCRFQKCLALGMSHNAIRF [G23D]", 0.192),
    ("NMECRVCGDKASGFHYGVHACEGCKGFFRRTIRMKLEYEKCERSCKIQKKNRNKCQYCRFIKCLALGMSHNAIRF [Q61I]", -0.254),
    ("NMECRVCGDKAWGFHYGVHACEGCKGFFRRTIRMKLEYEKCERSCKIQKKNRNKCQYCRFQKCLALGMSHNAIRF [S12W]", -0.579),
    ("NMECRVNGDKASGFHYGVHACEGCKGFFRRTIRMKLEYEKCERSCKIQKKNRNKCQYCRFQKCLALGMSHNAIRF [C7N]", -0.412),
    ("NMECRVCGDKASGFHYGVHACEGCKGFFRRTIRMKLEYEKCERSCKIQKKNNNKCQYCRFQKCLALGMSHNAIRF [R52N]", -0.084),
    ("NMECRVCGDKASGFHYGVHACEGCKGFFRRTIRMKLEYEKCERSCKIQKKNRNKCQYCRFQKCMALGMSHNAIRF [L64M]", -0.188),
    ("NMECRVCGDKASGFHYGVHACEGCKGFFRRTIRMKLEYEKCERSCKIQKKNRNKCQYCRFQKCLALGMSHNSIRF [A72S]", 0.052),
    ("NMECRVCGDKASGFHYGVHACEGCKGFWRRTIRMKLEYEKCERSCKIQKKNRNKCQYCRFQKCLALGMSHNAIRF [F28W]", -0.203),
    ("NMECRVMGDKASGFHYGVHACEGCKGFFRRTIRMKLEYEKCERSCKIQKKNRNKCQYCRFQKCLALGMSHNAIRF [C7M]", -0.984),
    ("NMECRVCGDKASGFHYGVHACEGCKGFFRRTIRMKLEYEKCERSCKIQKKNRNKCQYCKFQKCLALGMSHNAIRF [R59K]", -0.199),
    ("NMECRVCGDKASGFHYGVHACEGCKGFFRRTIRMKLEYEKCERSCKIQKCNRNKCQYCRFQKCLALGMSHNAIRF [K50C]", -0.164),
    ("NMECRVCGDKASGFHYGVHACEGCKGFFRRTIRMKLEYEKCERSQKIQKKNRNKCQYCRFQKCLALGMSHNAIRF [C45Q]", -0.884),
]
